Listed here are compounds together with their documented MIC.
Test system: Escherichia coli
Test: Antibacterial activity against Escherichia coli ATCC 25922 assessed as inhibition of bacterial growth by continuous dilution method
Format: functional
API: value field is a number in µg/mL; no unit string.

# example entries with known answers
# compound, quantity, meas-value
data = [
    ("CC(=O)Nc1ccc(S(=O)(=O)/C(=C\\c2nccs2)C(=O)c2nccs2)cc1", "MIC", 128),
    ("CCn1cc(C(=O)O)c(=O)c2cc(F)c(N3CCNCC3)cc21 [NORFLOXACIN]", "MIC", 4),
    ("C#CCO/N=C(/CS(=O)(=O)c1ccc(NC(C)=O)cc1)c1nccs1", "MIC", 16),
]

Given the compound CC(=O)Nc1ccc(S(=O)(=O)/C(=C\c2ccc(Cl)cc2Cl)C(=O)c2nccs2)cc1 , what is its reported MIC?
256

Can you look up the measured MIC of CC(=O)Nc1ccc(S(=O)(=O)/C(=C\c2ccc(F)cc2F)C(=O)c2nccs2)cc1 for me?
128

Query (compound): CCCCO/N=C(/CS(=O)(=O)c1ccc(N)cc1)c1nccs1 ; field requested: MIC
32

Look up MIC for this compound: CC(=O)Nc1ccc(S(=O)(=O)C/C(=N/Nc2ccc([N+](=O)[O-])cc2[N+](=O)[O-])c2nccs2)cc1
4

Which MIC reading was recorded for the compound N#CCO/N=C(/CS(=O)(=O)c1ccc(N)cc1)c1nccs1 ?
8

// returns reported MIC for input CC(=O)Nc1ccc(S(=O)(=O)/C(=C\c2ccccc2Cl)C(=O)c2nccs2)cc1
64
